Tested on: NOMO1
Assay: cell viability relative to DMSO control; higher = less cytotoxic
Conditions: HPLM + 10% dialyzed FBS; 48 h; 0.00702 µM
We begin with a simple list: items and their reported cell viability.
parameterMeasured: cell viability

- O=C(O)c1nn(Cc2ccc(Cl)cc2Cl)c2ccccc12: 106%
- CC(=O)OCC(CCn1cnc2cnc(N)nc21)COC(C)=O: 89.9%
- Cc1nc(N)sc1-c1ccnc(Nc2ccc(N3CCOCC3)cc2)n1: 111%
- O=C(O)CCc1ccc(NCc2cccc(Oc3ccccc3)c2)cc1: 134%
- COC1=CC=CC(=C1/C2=N/CC3=C(N=C(NC4=CC(=C(C=C4)C(O)=O)OC)N=C3)C5=CC=C(Cl)C=C25)F: 78.9%

* * *

Listed here: items and their measured cell viability.
System: SEM cells
Experiment: cell viability relative to DMSO control; higher = less cytotoxic
Details: RPMI 5 mM glucose + 10% FBS; 48 h; 0.0632 µM
parameterMeasured: cell viability (%)

• CCC[S+](=O)([O-])Nc1ccc(F)c(C(=O)c2c[nH]c3ncc(-c4ccc(Cl)cc4)cc23)c1F = 127
• CCCCCCCN(CC)CCCC(O)c1ccc(NS(C)(=O)=O)cc1.CCCCCCCN(CC)CCCC(O)c1ccc(NS(C)(=O)=O)cc1.O=C(O)/C=C/C(=O)O (configuration not stated) = 56.4
• CO[C@H]1C[C@H]2OC[C@@]2(OC(C)=O)[C@H]3[C@H](OC(=O)C4=CC=CC=C4)[C@]5(O)C[C@H](OC(=O)[C@H](O)[C@@H](NC(=O)OC(C)(C)C)C6=CC=CC=C6)/C(=C(/[C@@H](OC)C(=O)[C@]13C)C5(C)C)C = 12.3
• O=P1(NCCCl)OCCCN1CCCl (configuration not stated) = 96.8
• COC(=O)[C@@H]1CC2=CC(=O)CC[C@]2(C)[C@@]23O[C@@H]2C[C@@]2(C)[C@@H](CC[C@@]24CCC(=O)O4)[C@H]13 = 116
• O=C(c1ccc(C(=O)N2CCC(N3CCCC3)CC2)c(Nc2ccccc2)c1)N1CCC(N2CCCC2)CC1 = 105
• COc1c(C)c2c(c(O)c1C/C=C(\C)CCC(=O)OCCN1CCOCC1)C(=O)OC2 = 116

* * *

cell viability reference
Test system: SEM cells
Assay: cell viability relative to DMSO control; higher = less cytotoxic
Conditions: RPMI 5 mM glucose + 10% dialyzed FBS; 48 h; 0.19 µM
parameterMeasured: cell viability (%)

* COC1=CC(=C2C(=O)N(COC/3=C/C(=O)N4\C=C/C=C(OCCN5CCCCC5)\C4=N3)[S+]([O-])(=O)C2=C1)C(C)C | 125
* CN1CCC(=C2c3ccccc3CCc3sccc32)CC1 | 118
* O=P1(NCCCl)OCCCN1CCCl (stereo not drawn) | 69.1

* * *

Test system: NOMO1
Test: cell viability relative to DMSO control; higher = less cytotoxic
Conditions: RPMI 5 mM glucose + 10% dialyzed FBS; 48 h; 0.00702 µM
Let's look at some compounds and their measured cell viability.
parameterMeasured: cell viability (%)

* CCOC(=O)c1c(/C(C#N)=C\N)c2ccc(Cl)c(Cl)c2n1C | 87.7
* CC1(C)NC(=O)N(c2ccc([N+](=O)[O-])c(C(F)(F)F)c2)C1=O | 90.8
* CN(C)c1ccccc1CN1CCCN(Cc2ccccc2N(C)C)C1c1ccncc1 | 90.6

This collection of values is drawn from the supplement of paper PMC11451515.
